# TARGET: partially purified AICARFT from cultured CEM cells (Homo sapiens)
# Construct: partially purified AICARFT from cultured CEM cells; endogenous in cells
# Sequence (P31939 whole entry): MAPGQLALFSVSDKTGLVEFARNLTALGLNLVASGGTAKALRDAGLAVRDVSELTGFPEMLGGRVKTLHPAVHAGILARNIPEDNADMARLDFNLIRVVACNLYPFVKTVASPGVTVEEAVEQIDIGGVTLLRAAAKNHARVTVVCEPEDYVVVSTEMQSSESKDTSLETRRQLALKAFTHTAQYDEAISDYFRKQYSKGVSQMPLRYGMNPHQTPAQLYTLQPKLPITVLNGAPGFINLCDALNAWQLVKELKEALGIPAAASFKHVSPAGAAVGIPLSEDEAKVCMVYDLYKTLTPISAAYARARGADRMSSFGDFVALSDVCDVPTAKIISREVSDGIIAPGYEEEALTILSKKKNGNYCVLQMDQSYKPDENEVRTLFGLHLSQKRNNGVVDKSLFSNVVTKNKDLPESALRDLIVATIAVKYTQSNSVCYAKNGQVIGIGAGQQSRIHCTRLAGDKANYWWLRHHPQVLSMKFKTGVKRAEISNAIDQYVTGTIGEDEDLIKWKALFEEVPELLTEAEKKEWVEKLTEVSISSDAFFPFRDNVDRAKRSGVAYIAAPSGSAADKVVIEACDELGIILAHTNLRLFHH
# RUN DESCRIPTION: AICARFT inhibition constants (modified Black et al. assay)
# ASSAY SETUP: 37° C, 50 mM Tris-Cl pH 7.4, 50 μM racemic FTHF
pKi: −log10 of the molar value.
PROPERTY MEASURED: pKi

[1] Nc1nc(N)c(SCCc2ccc(C(=O)N[C@@H](CCC(=O)O)C(=O)O)s2)c(=O)[nH]1 [Example 9]
[2] Nc1nc(N)c(SCCc2ccc(C(=O)N[C@@H](CCC(=O)O)C(=O)O)cc2)c(=O)[nH]1 [Example 10]
Lab notebook, comparison: 1 versus 2 , higher pKi goes to which? Give the label of your selection.
1
(1: 4.46, 2: 4.22)

---

# Tested on: CCRF-CEM, a human lymphoblastic leukemia line of T-cell origin
# RUN DESCRIPTION: Cellular growth inhibition, CCRF-CEM (MTT-tetrazolium reduction)
# Format: cell-based
# ASSAY SETUP: 120 h, 5 days continuous exposure
PROPERTY MEASURED: IC50 (nM)

Here's what some known entries look like.
Note down IC50 recorded for Nc1nc(N)c(SCCNc2ccc(C(=O)N[C@@H](CCC(=O)O)C(=O)O)cc2)c(=O)[nH]1 [Example 5]
80

Note down IC50 recorded for Nc1nc(N)c(SCCCc2ccc(C(=O)N[C@@H](CCC(=O)O)C(=O)O)cc2)c(=O)[nH]1 [Example 2]
65

Note down IC50 recorded for Nc1nc(N)c(SCCc2ccc(C(=O)N[C@@H](CCC(=O)O)C(=O)O)cc2)c(=O)[nH]1 [Example 10]
1200

Note down IC50 recorded for Nc1nc(N)c(SCC2CCc3cc(C(=O)N[C@@H](CCC(=O)O)C(=O)O)sc3C2)c(=O)[nH]1 (stereo partly drawn) [Example 8]
8

Note down IC50 recorded for Nc1nc(N)c(SCCCc2ccc(C(=O)N[C@@H](CCC(=O)O)C(=O)O)s2)c(=O)[nH]1 [Example 3]
49

[P] Nc1nc(N)c(SCCSc2ccc(C(=O)N[C@@H](CCC(=O)O)C(=O)O)cc2)c(=O)[nH]1 [Example 4]
[Q] Nc1nc(N)c(SCCc2ccc(C(=O)N[C@@H](CCC(=O)O)C(=O)O)s2)c(=O)[nH]1 [Example 9]
// returns P or Q , whichever has the lower IC50 Give the label of your selection.
P
(P: 130 nM, Q: 620 nM)

---

# TARGET: GARFT domain of the human enzyme (Homo sapiens)
# Sequence (P22102 810-1010 limits assumed): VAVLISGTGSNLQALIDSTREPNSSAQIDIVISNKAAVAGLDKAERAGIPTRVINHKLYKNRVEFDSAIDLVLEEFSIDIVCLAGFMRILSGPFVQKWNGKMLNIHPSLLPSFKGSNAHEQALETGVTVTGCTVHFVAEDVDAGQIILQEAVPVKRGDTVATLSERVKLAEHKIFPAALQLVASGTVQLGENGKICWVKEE
PROPERTY MEASURED: pKi
Note on units: pKi is unitless, being -log10 of a concentration expressed in mol/L.

Provide GARFT domain of the human enzyme (Homo sapiens) pKi reading for `Nc1nc(N)c(SCCSc2ccc(C(=O)N[C@@H](CCC(=O)O)C(=O)O)cc2)c(=O)[nH]1` .
6.96

---

# Test system: L1210 murine leukemia
# RUN DESCRIPTION: Cellular growth inhibition, L1210 (MTT-tetrazolium reduction)
# Type: cell-based
# ASSAY SETUP: Mus musculus, L1210, 72 h; 3 days continuous exposure; read-out: Cell Line, IC50 L1210
# Protocol: Cellular growth in the presence of the compounds according to the present invention was assessed using two cell lines: the L1210 murine leukemia (ATCC CCL 219) and CCRF-CEM, a human lymphoblastic leukemia line of T-cell origin (ATCC CCL 119). Both lines were maintained in RPMI 1640 medium containing 5% heat-inactivated fetal bovine serum without antibiotics. […]
PROPERTY MEASURED: IC50 (µM)

Provide L1210 murine leukemia IC50 reading for `Cc1cc(C(=O)N[C@@H](CCC(=O)O)C(=O)O)sc1CCCSc1c(N)nc(N)[nH]c1=O` .
0.089

Provide L1210 murine leukemia IC50 reading for `Nc1nc(N)c(SCCNc2ccc(C(=O)N[C@@H](CCC(=O)O)C(=O)O)cc2)c(=O)[nH]1` .
0.09

Provide L1210 murine leukemia IC50 reading for `Nc1nc(N)c(SCCSc2ccc(C(=O)N[C@@H](CCC(=O)O)C(=O)O)cc2)c(=O)[nH]1` .
0.11

Where do the numbers come from? From patent US20020173515A1.
